Ki for D(3) dopamine receptor (Homo sapiens, UniProt P35462), merged from several publications.
Provide only the numeric value, understood in nM.

Before answering, review these 5 worked examples.
{"columns": ["compound.string", "Ki (nM)"],
 "data": [
  ["O=c1ccc(OCCCN2CCC(c3noc4cc(F)ccc34)CC2)nn1-c1c(F)cccc1F", 35.7],
  ["O=C(NCCCCN1CCN(c2cccc(Cl)c2Cl)CC1)c1ccc(F)cc1", 0.53],
  ["O[C@@H](CCCN1CCN(c2ccccn2)CC1)c1ccc(F)cc1", 125],
  ["COc1ccc2c(c1)CCN(C)CCc1cc(OC)ccc1C2", 102],
  ["COc1ccccc1N1CCN(CCCCNC(=O)/C=C/c2ccccc2Cl)CC1", 0.52]
]}

Record summary for COc1ccccc1N1CCN(CCCCNC(=O)c2ccc(-c3ccccc3)cc2)CC1 : reported Ki = 2.85

* * *

Reported pKi against UniProt:P35462, gathered from multiple publications, appears below.
Please keep in mind that pKi is minus log10 of the molar concentration; only the number is needed.

Here's what some known entries look like.
{"columns": ["compound", "assay.target", "result.number"],
 "data": [
  ["c1ccc(CN2CCC(n3cc(-c4ccccc4)nn3)CC2)cc1", "UniProt:P35462", 5.89],
  ["Fc1ccc(N2CCN(Cc3cnn(-c4ccccc4)c3)CC2)cc1", "UniProt:P35462", 6.27],
  ["COc1ccccc1N1CCN(CCCN2CCc3ncsc3CC2)CC1", "UniProt:P35462", 6.78],
  ["Cc1c(-c2ccccc2)cnn1C1CCN(Cc2cccc(C#N)c2)CC1", "UniProt:P35462", 5.36],
  ["COc1ccc(Br)cc1-c1nc(CN[C@@H]2CCN(Cc3ccccc3)C2)co1", "UniProt:P35462", 5.73]
]}

The reported UniProt:P35462 pKi of Clc1ccc(N2CCN(Cc3cn4nc(Cl)ccc4n3)CC2)cc1 is 5.11

Summary line: O/N=C/c1cnn2ccc(OCCCCN3CCN(c4cccc(Cl)c4Cl)CC3)cc12 (stereo in doubt; 8a) , UniProt:P35462, reported pKi = 8.64

The compound O=C1Cc2c(cccc2N2CCN(CCCCNC(=O)c3ccc4ccccc4c3)CC2)N1 , when measured on UniProt:P35462, yielded pKi of 9.30

Simply: COc1ccccc1N1CCN(CCCCNC(=O)c2cccc3c2-c2ccccc2C3=O)CC1 , UniProt:P35462, pKi = 8.53

* * *

Let's look at some log10 Ki data for D(3) dopamine receptor (Homo sapiens, UniProt P35462) that I collected from the literature.
Form field - Quantity: Ki; Unit: nM; Scale: log10

Look over these answered cases.
{"columns": ["compound", "log10 Ki"],
 "data": [
  ["CNc1cc(OC)c(C(=O)NC[C@@H]2CN(Cc3ccccc3)C[C@H]2C)cc1Cl", 2.32],
  ["Cn1nccc1-c1cccc(C(=O)N[C@H]2CC[C@H](CCN3CCc4ccc(S(C)(=O)=O)cc4CC3)CC2)c1", 0.50],
  ["COc1cc2c(cc1OC)Cc1ccccc1CCCN(C)CC2", 4.17],
  ["COc1ccc2c(c1)CCN1Cc3ccccc3CC21 (stereo not given)", 2.40]
]}

Please look at the following compound next.
Query O[C@H](CCCN1CCN(c2ccccn2)CC1)c1ccc(F)cc1 yields log10 Ki of 2.57

* * *

Compiled notes: published pKi values involving UniProtKB P35462.
Remember, pKi is on a log scale: it is -log10 of the molar concentration.

{"columns": ["molecule", "readout.kind", "result.number"],
 "data": [
  ["COc1cc2c(cc1O)CN(Cc1ccccc1CNC(=O)c1ccc3ccccc3c1)CC2", "pKi", 6.11],
  ["O=C(NCCCCN1CCN(c2ccccc2F)CC1)c1cc2ccccc2o1", "pKi", 9.52]
]}

Value of measured pKi for the entry Cn1cc2c(-c3c(-c4ccc(F)cn4)nn4c3COC(C)(C)C4)ccnc2n1 : 5.06

# molecule COc1cc2c(cc1O)CN(Cc1ccccc1CNC(=O)c1ccccc1Br)CC2 ; its pKi = 6.27

Per the record, CS(=O)(=O)c1ccc2c(c1)CCN(CC[C@H]1CC[C@H](NC(=O)/C=C/c3cc(F)cc(F)c3)CC1)CC2 has pKi of 8.70

Input FCCOc1ccccc1N1CCN(Cc2cc3ccccn3n2)CC1 . Output pKi: 6.03

For reference, reported pKi for CCS(=O)(=O)c1ccc(OC)c(-c2ccc(C(C)N3CCCCC3)[nH]2)c1 (stereo unspecified) stands at 8.00

Form field pKi, entry c1ccc(-c2nc(CN3CCN(c4ccccc4)CC3)co2)cc1 : 5.40

Consider Cc1nc2c(OCCNCc3ccccc3)cccc2[nH]1 . Its measured pKi is 7.02

pKi recorded for this molecule, CCCN(CCC)[C@@H]1CCn2c(C)ccc2C1 , is 6.23

pKi reported for this molecule COc1ccc(N2CCN(CCCCOc3ccc4c(c3)NC(=O)CC4)CC2)c(OC)c1 : 6.11

// recorded pKi for O=C1CCc2ccccc2N1CCCN1CCN(CCc2ccccc2)CC1 : 5.40

The molecule listed as COc1cccc2c1CCC(N(C)CCCCNC(=O)c1ccc(-c3ccccc3)cc1)C2 (stereo unspecified) has a reported pKi of 7.90

Measured pKi, O=C1COc2ccc(CN3CCN(c4ccccc4)CC3)cc2N1 : 6.08

* * *

Here, compounds appear alongside Ki reported for D(3) dopamine receptor (Homo sapiens, UniProt P35462) in the literature.
The reply should contain only the number, in µM.

{"columns": ["compound", "Ki / µM"],
 "data": [
  ["COc1ccc(-c2cc(CCCCN3CCN(c4ccccc4OC)CC3)on2)c(OC)c1", 0.0065],
  ["O=C(NCCCCN1CCO[C@@H]2c3ccccc3OC[C@H]21)c1cc2ccccc2[nH]1 (racemic)", 0.0105],
  ["COc1ccccc1N1CCN(Cc2cnc3cc(C)nc(C)n23)CC1", 1.5],
  ["O=C(NC[C@H]1C[C@H]1CN1CCN(c2cccc(Cl)c2Cl)CC1)c1ccc(-c2ccccn2)cc1 (relative stereo)", 0.16],
  ["O=C1c2ccccc2S(=O)(=O)N1CCCCN1CCN(c2ccc(Cl)cc2)CC1", 0.287]
]}

Summary for this compound, C#Cc1cc(CN2CCN(c3ccccc3OC)CC2)c2cccccc1-2 : Ki is 0.37

For reference, reported Ki for C(=C\c1cc(CCCCN2CCN(c3ccccc3)CC2)on1)/c1ccccc1 stands at 0.027

Sure, the documented Ki for Cc1cccc(N2CCN(CCCCNC(=O)c3ccc4ccccc4c3)CC2)c1C is 0.00133

Lookup result for Clc1ccc2nc(CN3CCN(c4ccc(Cl)c(Cl)c4)CC3)cn2n1 ; measured Ki: 1.5

* * *

What follows is literature data on log10(Ki) for D(3) dopamine receptor (Homo sapiens, UniProt P35462).
The figures below represent log10 of Ki, where Ki is stated in nM.

Look over these answered cases.
{"columns": ["compound", "result.number"],
 "data": [
  ["Fc1ccc(N2CCN(CC[C@H]3CC[C@H](Nc4ncccn4)CC3)CC2)cc1", 1.68],
  ["Clc1ccc(N2CCN(Cc3cn4ccccc4n3)CC2)cc1", 3.94],
  ["COc1ccccc1N1CCN(CCNC(=O)NN(Cc2ccccc2)c2ccc(F)cc2)CC1", 2.85],
  ["CCc1cc(Cl)c(OC)c(C(=O)NC[C@@H]2C[C@@H](OCCCCNC(=O)c3cc4ccccc4o3)CN2)c1O", -0.31]
]}

Considering COc1ccccc1N1CCN(Cc2cn(-c3ccc(OCCOCCOCCF)cc3)nn2)CC1 , its log10(Ki) with D(3) dopamine receptor (Homo sapiens, UniProt P35462) was recorded as 2.30

Item: CN1CCc2ccc(OCCCN3CCC(c4noc5cc(F)ccc45)CC3)cc2C1=O | System: D(3) dopamine receptor (Homo sapiens, UniProt P35462) | log10(Ki): 2.35

So the reported log10(Ki) for CCCN(CCC)[C@H]1CCn2ccc(C)c2C1 , on D(3) dopamine receptor (Homo sapiens, UniProt P35462), turned out to be 2.88

Value (log10(Ki), D(3) dopamine receptor (Homo sapiens, UniProt P35462)) for record CNCC1Cc2ccc3c(ccn3S(=O)(=O)c3cccc4ccccc34)c21 (stereo not given) = 2.40

Measured log10(Ki) for this entry COc1cc2c(cc1O)CN(CCCCNC(=O)c1ccc(I)cc1)CC2 on D(3) dopamine receptor (Homo sapiens, UniProt P35462): 1.00

* * *

The entries that follow carry pKi values tested on D(3) dopamine receptor (Homo sapiens, UniProt P35462), drawn from several published reports.
Sequence (P35462 whole entry): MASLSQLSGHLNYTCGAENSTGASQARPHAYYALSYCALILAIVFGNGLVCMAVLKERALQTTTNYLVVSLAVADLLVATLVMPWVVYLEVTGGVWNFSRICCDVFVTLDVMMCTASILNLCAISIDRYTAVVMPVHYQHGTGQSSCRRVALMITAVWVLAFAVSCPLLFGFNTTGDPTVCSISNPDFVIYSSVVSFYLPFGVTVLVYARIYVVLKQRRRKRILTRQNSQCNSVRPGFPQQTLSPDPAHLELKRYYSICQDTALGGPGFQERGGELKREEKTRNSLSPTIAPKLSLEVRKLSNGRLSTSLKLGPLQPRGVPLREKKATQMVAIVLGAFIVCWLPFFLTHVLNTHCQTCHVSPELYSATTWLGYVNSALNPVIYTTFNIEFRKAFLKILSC
Schema: pKi number; meaning minus log10 of the concentration expressed in molar units.

Recorded pKi (compound c1ccc(-c2nc(CN3CCN(c4ccccc4)CC3)c[nH]2)cc1 ): 6.71

Item: COc1ccccc1N1CCN(CCCCNC(=O)/C=C/c2ccc(C=O)cc2)CC1 | pKi: 9.14

Lookup result for COc1ccc2c3c(c(=O)oc2c1)CN(Cc1ccc(F)cc1)CC3 ; measured pKi: 6.26

Item: COc1ccc(NC(=O)NCCCN2CCN(c3ccccc3OC)CC2)cc1-c1ccc(F)cc1 | pKi: 7.18

Notebook: CC(=O)Nc1ccc(CCN(C)CC2Cc3ccc4c(ccn4S(=O)(=O)c4ccccc4)c32)cc1 (stereo not given) , pKi read as 6.30

So for Cc1cccc(N2CCN(CCCCNC(=O)c3cc4ccccc4cn3)CC2)n1 , the logged pKi turned out to be 7.34

// field: pKi; key: Clc1cccc(N2CCN(CCCCOc3cccc4ccnn34)CC2)c1Cl ; value = 8.14

Reported pKi ( CC(=O)c1ccc(-c2ccc(C(=O)NCCCCN3CCc4ccc(OS(=O)(=O)C(F)(F)F)cc4C3)cc2)cc1 ) = 8.60

Sure, the documented pKi for c1ccc(-c2ncc(CN3CCN(c4ccccn4)CC3)[nH]2)cc1 is 5.82
